molecular target: Met kinase (Homo sapiens); assay: Met kinase inhibition (cell); assay type: cell-based
Sequence (P08581 25-1390): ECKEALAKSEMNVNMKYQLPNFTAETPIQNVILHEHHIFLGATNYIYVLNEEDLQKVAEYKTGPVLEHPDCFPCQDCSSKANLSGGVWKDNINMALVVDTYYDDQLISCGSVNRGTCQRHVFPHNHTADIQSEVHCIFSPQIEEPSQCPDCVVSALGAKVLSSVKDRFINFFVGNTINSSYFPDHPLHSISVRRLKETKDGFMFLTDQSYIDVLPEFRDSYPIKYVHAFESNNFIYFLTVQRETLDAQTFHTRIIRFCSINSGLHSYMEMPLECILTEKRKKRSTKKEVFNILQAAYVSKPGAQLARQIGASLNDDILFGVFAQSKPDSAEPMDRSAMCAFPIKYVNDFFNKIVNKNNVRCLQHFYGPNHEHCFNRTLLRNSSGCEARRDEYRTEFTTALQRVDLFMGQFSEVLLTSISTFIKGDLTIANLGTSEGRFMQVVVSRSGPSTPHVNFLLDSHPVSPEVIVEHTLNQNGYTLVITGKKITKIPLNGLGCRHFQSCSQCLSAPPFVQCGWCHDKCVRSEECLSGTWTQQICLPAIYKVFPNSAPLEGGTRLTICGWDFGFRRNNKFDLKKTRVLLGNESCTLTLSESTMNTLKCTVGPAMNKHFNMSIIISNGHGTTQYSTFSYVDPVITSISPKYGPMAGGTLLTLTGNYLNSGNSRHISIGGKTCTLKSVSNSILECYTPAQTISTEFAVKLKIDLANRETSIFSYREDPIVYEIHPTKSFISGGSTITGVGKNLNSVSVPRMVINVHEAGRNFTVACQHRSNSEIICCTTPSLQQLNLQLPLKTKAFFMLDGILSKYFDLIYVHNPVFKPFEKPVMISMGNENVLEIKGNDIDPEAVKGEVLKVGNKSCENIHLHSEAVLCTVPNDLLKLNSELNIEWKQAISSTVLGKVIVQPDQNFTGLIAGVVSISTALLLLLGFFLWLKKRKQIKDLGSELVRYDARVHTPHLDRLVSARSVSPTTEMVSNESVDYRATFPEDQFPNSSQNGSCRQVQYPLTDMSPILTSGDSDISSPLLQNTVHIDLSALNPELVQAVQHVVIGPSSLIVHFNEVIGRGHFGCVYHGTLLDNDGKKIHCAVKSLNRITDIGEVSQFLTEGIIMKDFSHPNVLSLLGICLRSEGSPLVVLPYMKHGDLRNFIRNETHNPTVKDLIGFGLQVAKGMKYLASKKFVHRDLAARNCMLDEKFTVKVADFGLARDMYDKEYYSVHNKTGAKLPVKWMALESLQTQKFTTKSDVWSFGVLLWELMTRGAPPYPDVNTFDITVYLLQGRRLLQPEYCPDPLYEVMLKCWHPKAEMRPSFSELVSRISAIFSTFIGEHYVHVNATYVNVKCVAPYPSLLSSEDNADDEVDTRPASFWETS
pIC50: −log10 of the molar value.
Metric Name: pIC50

INSERT INTO measurements (item_smiles, metric_name, val) VALUES
  ('O=c1ccc(-c2cc(F)cc(F)c2)nn1Cc1cccc(-c2noc(-c3ccco3)n2)c1', 'pIC50', '5.00 to 7.00'),
  ('O=c1ccc(-c2cc(F)cc(F)c2)nn1Cc1cccc(-c2ncc(-c3cnn(C4CCNCC4)c3)o2)c1', 'pIC50', '7.00 to 9.00'),
  ('O=c1ccc(-c2cccc(F)c2)nn1Cc1cccc(-c2ncc(-c3cnn(C4CCNCC4)c3)s2)c1', 'pIC50', '7.00 to 9.00'),
  ('Cc1ccc(-c2nc(-c3cccc(Cn4nc(-c5cc(F)cc(F)c5)ccc4=O)c3)no2)cn1', 'pIC50', '7.00 to 9.00'),
  ('O=c1ccc(-c2cc(F)cc(F)c2)nn1Cc1cccc(-c2ncc(-c3cnn(C4CCNCC4)c3)s2)c1', 'pIC50', '7.00 to 9.00'),
  ('Cn1cc(-c2nc(-c3cccc(Cn4nc(-c5cc(F)cc(F)c5)ccc4=O)c3)no2)cn1', 'pIC50', '7.00 to 9.00');
